// Hmax (100 μM) lookup, one value per entry
system: red blood cells; assay: Hemolysis assay; type: cell-based, Sprague-Dawley mouse
Note: unit % is implicit; provide only the numeric part.

molecule	test_system	measured_metric	value_measured
C[C@@H](c1ccccc1)N(CC(N)=O)C(=O)CN(C(=O)CN(CCCCN)C(=O)CN(C(=O)CN(C(=O)CN(CCCCN)C(=O)CN(C(=O)CN(C(=O)CN(CCCCN)C(=O)CN(Cc1ccccc1)C(=O)CN(Cc1ccccc1)C(=O)CNCCCCN)[C@@H](C)c1ccccc1)[C@@H](C)c1ccccc1)[C@@H](C)c1ccccc1)[C@@H](C)c1ccccc1)[C@@H](C)c1ccccc1	red blood cells	Hmax (100 μM)	90.8

Proceed to the following item.
Request: Reported Hmax (100 μM) for C[C@@H](c1ccccc1)N(CC(N)=O)C(=O)CN(C(=O)CN(CCCCN)C(=O)CN(C(=O)CN(C(=O)CN(CCCCN)C(=O)CN(C(=O)CN(C(=O)CN(CCCCN)C(=O)CN(CCc1c[nH]c2ccccc12)C(=O)CN(C(=O)CNCCCCN)[C@@H](C)c1ccccc1)[C@@H](C)c1ccccc1)[C@@H](C)c1ccccc1)[C@@H](C)c1ccccc1)[C@@H](C)c1ccccc1)[C@@H](C)c1ccccc1 [Peptoid 10-2] : what is it?
Response: 102.3

---

tested on: red blood cells; experiment: Hemolysis assay; type: cell-based, Sprague-Dawley mouse
Where a SMILES comes first, the peptide text is derived from it. [ ]: non-standard residue; d: D form. Gly(N(CH2)2(3-indolyl)) = O=C(O)CNCCc1c[nH]c2ccccc12; Nspe = C[C@H](NCC(=O)O)c1ccccc1; Nlys = NCCCCNCC(=O)O
Classify: y when HC10 is strictly less than 10 µM; n when HC10 is not.

Previously resolved entries follow.
compound	label
C[C@@H](c1ccccc1)N(CC(N)=O)C(=O)CN(C(=O)CN(CCCCN)C(=O)CN(CCc1c[nH]c2ccccc12)C(=O)CN(CCc1c[nH]c2ccccc12)C(=O)CN(CCCCN)C(=O)CN(C(=O)CN(C(=O)CN(CCCCN)C(=O)CN(C(=O)CN(C(=O)CNCCCCN)[C@@H](C)c1ccccc1)[C@@H](C)c1ccccc1)[C@@H](C)c1ccccc1)[C@@H](C)c1ccccc1)[C@@H](C)c1ccccc1	n
C[C@@H](c1ccccc1)N(CC(=O)N(CCCCN)CC(=O)N(CC(=O)N(CC(=O)N(CCCCN)CC(=O)N(CC(=O)N(CC(=O)N(CCCCN)CC(=O)N(CCc1c[nH]c2ccccc12)CC(=O)N(CCc1c[nH]c2ccccc12)CC(N)=O)[C@@H](C)c1ccccc1)[C@@H](C)c1ccccc1)[C@@H](C)c1ccccc1)[C@@H](C)c1ccccc1)C(=O)CN(CCCCN)C(=O)CNCCCCN [Peptoid 31] (H-[Nlys][Nlys][Nspe][Nlys][Nspe][Nspe][Nlys][Nspe][Nspe][Nlys][Gly(N(CH2)2(3-indolyl))][Gly(N(CH2)2(3-indolyl))]-NH2)	n
C[C@@H](c1ccccc1)N(CC(N)=O)C(=O)CN(C(=O)CN(CCCCN)C(=O)CN(C(=O)CN(C(=O)CN(CCCCN)C(=O)CN(C(=O)CN(C(=O)CN(CCCCN)C(=O)CN(CCc1c[nH]c2ccccc12)C(=O)CN(C(=O)CNCCCCN)[C@@H](C)c1ccccc1)[C@@H](C)c1ccccc1)[C@@H](C)c1ccccc1)[C@@H](C)c1ccccc1)[C@@H](C)c1ccccc1)[C@@H](C)c1ccccc1 [Peptoid 10-2]	n
C[C@@H](c1ccccc1)N(CC(N)=O)C(=O)CN(C(=O)CN(CCCCN)C(=O)CN(CCc1c[nH]c2ccccc12)C(=O)CN(C(=O)CN(CCCCN)C(=O)CN(C(=O)CN(C(=O)CN(CCCCN)C(=O)CN(C(=O)CN(C(=O)CNCCCCN)[C@@H](C)c1ccccc1)[C@@H](C)c1ccccc1)[C@@H](C)c1ccccc1)[C@@H](C)c1ccccc1)[C@@H](C)c1ccccc1)[C@@H](C)c1ccccc1	n

Request: is_below(HC10, 10 µM) for C[C@@H](c1ccccc1)N(CC(N)=O)C(=O)CN(C(=O)CN(CCCCN)C(=O)CN(C(=O)CN(C(=O)CN(CCCCN)C(=O)CN(C(=O)CN(C(=O)CN(CCCCN)C(=O)CN(C(=O)CN(C(=O)CN(CCCCN)C(=O)CN(CCc1c[nH]c2ccccc12)C(=O)CNCCc1c[nH]c2ccccc12)[C@@H](C)c1ccccc1)[C@@H](C)c1ccccc1)[C@@H](C)c1ccccc1)[C@@H](C)c1ccccc1)[C@@H](C)c1ccccc1)[C@@H](C)c1ccccc1)[C@@H](C)c1ccccc1 ?
Response: y

Data origin: patent US20240226228A1
